Assay: DNDI: Solubility in phosphate buffered saline at pH7.4 measured by nephelometry at room temperature (NEPH-RT)
Format: physicochemical
Conditions: pH 7.4
I would appreciate it if you labelled entries class 1 when solubility kinetic is 6 µM or higher, otherwise class 0.

[
  {
    "compound": "Cc1ccc(CNC(c2nc(-c3ccccc3)c(N3CCCCC3)o2)C2CC2)cc1 (stereo not given)",
    "category": "class 0"
  },
  {
    "compound": "O/N=C(\\NC1CCCCC1)C1CCCCC1",
    "category": "class 1"
  },
  {
    "compound": "COc1ccc(/C(=N/O)Nc2cccc(F)c2)cc1",
    "category": "class 1"
  },
  {
    "compound": "CCCCCC(C)NCc1coc(-c2ccc(OC(CC)CC)cc2)n1 (stereo not given)",
    "category": "class 0"
  },
  {
    "compound": "O/N=C(\\NC1CCCCC1)c1cccnc1",
    "category": "class 1"
  },
  {
    "compound": "CN(C)CCNc1nc(Oc2cccc3ccccc23)c2sccc2n1",
    "category": "class 1"
  },
  {
    "compound": "CCCCc1ccc(-c2nc(CNCCC3CCCN3C)co2)cc1 (stereo not given)",
    "category": "class 1"
  },
  {
    "compound": "CCCCCOc1ccc(-c2nc(CNC[C@@H]3CC[C@H]4C[C@@H]3C4(C)C)co2)cc1",
    "category": "class 0"
  },
  {
    "compound": "COc1ccc(/C(=N\\O)Nc2ccccc2)cc1",
    "category": "class 1"
  },
  {
    "compound": "N=C(NC1CCCCC1)c1ccccc1-c1ccccc1",
    "category": "class 1"
  },
  {
    "compound": "CCc1ccc(/C(=N/O)NC2CCCCC2)cc1",
    "category": "class 1"
  },
  {
    "compound": "CCCCOc1ccc(-c2nc(CNC3CCCCCC3)co2)cc1",
    "category": "class 0"
  },
  {
    "compound": "Cc1cccc(-c2nc(CNCCC3CCCN3C)c(C)o2)c1 (stereo not given)",
    "category": "class 1"
  },
  {
    "compound": "CCCCCOc1ccc(-c2nc(CNC3CC(C)CC(C)(C)C3)co2)cc1 (stereo not given)",
    "category": "class 0"
  },
  {
    "compound": "CC(C)(C)c1ccc(-c2nc(CNC3CCCCCC3)co2)cc1",
    "category": "class 1"
  },
  {
    "compound": "CC(C)(C)c1ccc(Oc2ncccc2/C(=N/O)NC2CCCCC2)cc1",
    "category": "class 1"
  },
  {
    "compound": "COc1ccc(CNC(CCc2ccccc2)c2nc(Cc3ccccc3)c(N3CCCCC3)o2)cc1OC (stereo not given)",
    "category": "class 0"
  },
  {
    "compound": "COc1cc(C)ccc1Oc1ncccc1/C(=N/O)NC1CCCCC1",
    "category": "class 1"
  },
  {
    "compound": "COC/C(=N/O)c1ccc(OC)cc1",
    "category": "class 1"
  },
  {
    "compound": "CCCCCOc1ccc(-c2nc(CNCCC3CCCN3C)co2)cc1 (stereo not given)",
    "category": "class 0"
  },
  {
    "compound": "CCCCCC(C)NCc1coc(-c2ccc(OCc3ccccc3)cc2)n1 (stereo not given)",
    "category": "class 0"
  },
  {
    "compound": "CN(C)CCNc1cc(-c2ccccc2)nc2cc(-c3ccc(F)cc3)nn12",
    "category": "class 1"
  },
  {
    "compound": "COc1ccc(/C(CNC2CCCCC2)=N/O)cc1",
    "category": "class 1"
  },
  {
    "compound": "Cc1ccc(Oc2ncccc2/C(=N/O)NC2CCCCC2)cc1",
    "category": "class 1"
  },
  {
    "compound": "CN1CC(OC(=O)c2ccccc2)=CC1=O",
    "category": "class 1"
  },
  {
    "compound": "O/N=C(/c1ccccc1-c1ccccc1)N1CCCCC1",
    "category": "class 1"
  },
  {
    "compound": "CCc1cccc(N/C(=N/O)c2ccc(OC)cc2)c1",
    "category": "class 1"
  },
  {
    "compound": "CCCCCC(C)NCc1coc(-c2ccc(OC3CCCCC3)cc2)n1 (stereo not given)",
    "category": "class 0"
  },
  {
    "compound": "CC(C)(C)c1cc(N2CCNCC2)n2nc(-c3ccc(F)cc3)cc2n1",
    "category": "class 1"
  },
  {
    "compound": "Cc1cc(N2CCNCC2)n2nc(-c3cccc(F)c3)cc2n1",
    "category": "class 1"
  },
  {
    "compound": "CCCCCC(C)NCc1coc(-c2ccc(OCC(C)C)cc2)n1 (stereo not given)",
    "category": "class 0"
  },
  {
    "compound": "COc1ccc(C(=O)OC2=CC(=O)N(C)C2)cc1",
    "category": "class 1"
  },
  {
    "compound": "O/N=C(\\NC1CCCCC1)c1ccc(F)cc1",
    "category": "class 1"
  },
  {
    "compound": "CCCCc1ccc(-c2nc(CNCCN3CCCC3)co2)cc1",
    "category": "class 0"
  }
]
